# protocol-notes: Solubility estimation of freebase Form A in 20 solvents at RT
# Type: physicochemical
# test-parameters: organic solvent or mixture, thermodynamic from solid, DCM, read-out: Solubility
recorded-endpoint: solubility

1) Cc1cccc(F)c1C(=O)Nc1cnc(-c2cc3c(cc2Cl)OC(F)(F)O3)cn1 [Form A] :: > 22 mg/mL

---

# protocol-notes: Solubility estimation of freebase Form A in 20 solvents at RT
# Assay type: physicochemical
# test-parameters: organic solvent or mixture, thermodynamic from solid, in MeOH, Acetic acid, Acetonitrile, Acetone, MIBK, EtOAc, IPAc, MTBE, THF, 2-MeTHF, 1,4-Dioxane, NMP, DMSO, DCM, Toluene and DMAc, read-out: solubility (soluble)
recorded-endpoint: solubility

1) Cc1cccc(F)c1C(=O)Nc1cnc(-c2cc3c(cc2Cl)OC(F)(F)O3)cn1 [Form A] :: > 18 mg/mL

---

# protocol-notes: Solubility estimation of freebase Form A in 20 solvents at RT
# Type: physicochemical
# test-parameters: organic solvent or mixture, thermodynamic from solid, MTBE, read-out: Solubility
recorded-endpoint: solubility

1) Cc1cccc(F)c1C(=O)Nc1cnc(-c2cc3c(cc2Cl)OC(F)(F)O3)cn1 [Form A] :: > 18 mg/mL

---

# protocol-notes: Solubility estimation of freebase Form A in 20 solvents at RT
# Type: physicochemical
# test-parameters: organic solvent or mixture, thermodynamic from solid, Acetic acid, read-out: Solubility
recorded-endpoint: solubility

1) Cc1cccc(F)c1C(=O)Nc1cnc(-c2cc3c(cc2Cl)OC(F)(F)O3)cn1 [Form A] :: > 22 mg/mL

---

# protocol-notes: Solubility estimation of freebase Form A in 20 solvents at RT
# Format: physicochemical
# test-parameters: organic solvent or mixture, thermodynamic from solid, Acetone, read-out: Solubility
recorded-endpoint: solubility

1. Cc1cccc(F)c1C(=O)Nc1cnc(-c2cc3c(cc2Cl)OC(F)(F)O3)cn1 [Form A] :: > 22 mg/mL

---

# protocol-notes: Solubility estimation of freebase Form A in 20 solvents at RT
# Format: physicochemical
# test-parameters: organic solvent or mixture, thermodynamic from solid, MIBK, read-out: Solubility
recorded-endpoint: solubility

1. Cc1cccc(F)c1C(=O)Nc1cnc(-c2cc3c(cc2Cl)OC(F)(F)O3)cn1 [Form A] :: > 22 mg/mL

---

# protocol-notes: Solubility of Compound A in F57, Method 4: bottom-up method
# Format: physicochemical
# test-parameters: F57 emulsion vehicle, thermodynamic from solid; bottom-up, F57 vehicle, 2-8° C., in 7 weeks
recorded-endpoint: solubility at 7 weeks (µg/mL)

1) Cc1cccc(F)c1C(=O)Nc1cnc(-c2cc3c(cc2Cl)OC(F)(F)O3)cn1 [Form A] :: 1800

---

# protocol-notes: Solubility estimation of freebase Form A in 20 solvents at RT
# Assay type: physicochemical
# test-parameters: organic solvent or mixture, thermodynamic from solid, Heptane, read-out: Solubility
recorded-endpoint: solubility

1. Cc1cccc(F)c1C(=O)Nc1cnc(-c2cc3c(cc2Cl)OC(F)(F)O3)cn1 [Form A] :: < 1300 µg/mL

---

# protocol-notes: Solubility estimation of freebase Form A in 20 solvents at RT
# Type: physicochemical
# test-parameters: organic solvent or mixture, thermodynamic from solid, Toluene, read-out: Solubility
recorded-endpoint: solubility

1) Cc1cccc(F)c1C(=O)Nc1cnc(-c2cc3c(cc2Cl)OC(F)(F)O3)cn1 [Form A] :: > 22 mg/mL

---

# protocol-notes: Solubility estimation of freebase Form A in 20 solvents at RT
# Format: physicochemical
# test-parameters: organic solvent or mixture, thermodynamic from solid, NMP, read-out: Solubility
recorded-endpoint: solubility

1. Cc1cccc(F)c1C(=O)Nc1cnc(-c2cc3c(cc2Cl)OC(F)(F)O3)cn1 [Form A] :: > 26 mg/mL

---

# protocol-notes: Solubility estimation of freebase Form A in 20 solvents at RT
# Assay type: physicochemical
# test-parameters: organic solvent or mixture, thermodynamic from solid, IPAc, read-out: Solubility
recorded-endpoint: solubility

1. Cc1cccc(F)c1C(=O)Nc1cnc(-c2cc3c(cc2Cl)OC(F)(F)O3)cn1 [Form A] :: > 24 mg/mL

---

# protocol-notes: Initial formulations: Compound A saturation assay (HPLC) and appearance in template emulsion vehicles
# Type: physicochemical
# test-parameters: emulsion composition containing ≥10% egg lecithin, aqueous with cosolvent or surfactant or cyclodextrin, thermodynamic from solid
recorded-endpoint: solubility

1. Cc1cccc(F)c1C(=O)Nc1cnc(-c2cc3c(cc2Cl)OC(F)(F)O3)cn1 :: ≥ 2.4 mg/mL

---

# protocol-notes: Solubility estimation of freebase Form A in 20 solvents at RT
# Format: physicochemical
# test-parameters: organic solvent or mixture, thermodynamic from solid, Acetonitrile, read-out: Solubility
recorded-endpoint: solubility

1. Cc1cccc(F)c1C(=O)Nc1cnc(-c2cc3c(cc2Cl)OC(F)(F)O3)cn1 [Form A] :: > 22 mg/mL

---

# protocol-notes: Solubility estimation of freebase Form A in 20 solvents at RT
# Type: physicochemical
# test-parameters: organic solvent or mixture, thermodynamic from solid, EtOAc, read-out: Solubility
recorded-endpoint: solubility

1. Cc1cccc(F)c1C(=O)Nc1cnc(-c2cc3c(cc2Cl)OC(F)(F)O3)cn1 [Form A] :: > 22 mg/mL

---

# protocol-notes: Solubility estimation of freebase Form A in 20 solvents at RT
# Assay type: physicochemical
# test-parameters: organic solvent or mixture, thermodynamic from solid, DMAc, read-out: Solubility
recorded-endpoint: solubility

1) Cc1cccc(F)c1C(=O)Nc1cnc(-c2cc3c(cc2Cl)OC(F)(F)O3)cn1 [Form A] :: > 22 mg/mL

---

# protocol-notes: Solubility of Compound A in F57, summary of all 7 methods
# Format: physicochemical
# test-parameters: F57, thermodynamic from solid, in F57, Method 7, Equilibrium reached; read-out: Measured Solubility
# Description: The term “solubility” used herein is defined as Compound A concentration where Compound A has reached a dissolution-precipitation equilibrium in F57 at a selected temperature. […] On the other hand, if Compound A concentration is higher than the solubility, Compound A is expected to precipitate over time. […]
recorded-endpoint: solubility

1. Cc1cccc(F)c1C(=O)Nc1cnc(-c2cc3c(cc2Cl)OC(F)(F)O3)cn1 :: 1800 to 1900 µg/mL

---

# protocol-notes: Solubility estimation of freebase Form A in 20 solvents at RT
# Type: physicochemical
# test-parameters: organic solvent or mixture, thermodynamic from solid, in Heptane and H2O, read-out: solubility (insoluble)
recorded-endpoint: solubility

1. Cc1cccc(F)c1C(=O)Nc1cnc(-c2cc3c(cc2Cl)OC(F)(F)O3)cn1 [Form A] :: < 1300 µg/mL

---

# protocol-notes: Solubility of Compound A in F57, Method 6: Form B seeds added to GMP batch
# Type: physicochemical
# test-parameters: F57 emulsion (GMP batch), 2 °C, thermodynamic from solid; 2-8° C.; read-out: API solubility in F57
recorded-endpoint: solubility

1. Cc1cccc(F)c1C(=O)Nc1cnc(-c2cc3c(cc2Cl)OC(F)(F)O3)cn1 :: 1800 to 1900 µg/mL

---

# protocol-notes: Solubility of Compound A in F57, summary of all 7 methods
# Type: physicochemical
# test-parameters: F57, thermodynamic from solid, in F57, Method 2, Equilibrium reached; read-out: Measured Solubility
recorded-endpoint: solubility

1) Cc1cccc(F)c1C(=O)Nc1cnc(-c2cc3c(cc2Cl)OC(F)(F)O3)cn1 [Compound A] :: 1800 to 1900 µg/mL
